test system: EJM (Plasma Cell Myeloma); assay: combination Emax (second highest fraction inhibited in the dose matrix, 72 h); higher = more inhibition; extreme values may be limits of the assay
MEASURED_QUANTITY: combination Emax
Answers are plain numbers.

Reference set (6 entries):
INSERT INTO results (compound, measurement) VALUES
  ('COc1cccc(OCCCN)c1-c1cc(Nc2cnc(C#N)cn2)n[nH]1 [Prexasertib] + O=C(c1cc(Cc2n[nH]c(=O)c3ccccc23)ccc1F)N1CCN(C(=O)C2CC2)CC1 [Olaparib] (first compound max 1 µM, 7x7, partner max 10 µM)', 0.969),
  ('Cc1c2c(nn1C)CSCc1cc(n(C)n1)CSc1cc(c3ccccc3c1)OCCCc1c(C(=O)O)n(C)c3c-2c(Cl)ccc13 [AZD5991] + CN(C)CCCOc1ccc(-c2ccc3ncc4c(c3c2)n(C2CCOCC2)c(=O)n4C)cn1 [AZD0156] (first compound max 1 µM, 7x7, partner max 1 µM)', 0.965),
  ('C=CCn1c(=O)c2cnc(Nc3ccc(N4CCN(C)CC4)cc3)nc2n1-c1cccc(C(C)(C)O)n1 [AZD1775] + O=C(c1cc(Cc2n[nH]c(=O)c3ccccc23)ccc1F)N1CCN(C(=O)C2CC2)CC1 [Olaparib] (first compound max 1 µM, partner max 10 µM)', 0.891),
  ('C[C@@H](c1ccc2nccn2c1)n1nnc2ncc(-c3cnn(C)c3)nc21 [Savolitinib] + Cc1c2c(nn1C)CSCc1cc(n(C)n1)CSc1cc(c3ccccc3c1)OCCCc1c(C(=O)O)n(C)c3c-2c(Cl)ccc13 [AZD5991] (first compound max 1 µM, 7x7, partner max 1 µM)', 0.232),
  ('COc1cccc(OCCCN)c1-c1cc(Nc2cnc(C#N)cn2)n[nH]1 [Prexasertib] + C[C@@H]1COCCN1C2=NC(=NC(=C2)C3(CC3)[S@](=N)(=O)C)C4=C5C=CNC5=NC=C4 [AZD6738] (first compound max 1 µM, 7x7, partner max 10 µM)', 0.947),
  ('CC(=O)c1c(C)c2cnc(Nc3ccc(N4CCNCC4)cn3)nc2n(C2CCCC2)c1=O [Palbociclib] + Cc1c2c(nn1C)CSCc1cc(n(C)n1)CSc1cc(c3ccccc3c1)OCCCc1c(C(=O)O)n(C)c3c-2c(Cl)ccc13 [AZD5991] (first compound max 10 µM, 7x7, partner max 1 µM)', 0.443);

Qu. Fetch value of combination Emax on EJM (Plasma Cell Myeloma) for CC1(C)CCC(CN2CCN(c3ccc(C(=O)NS(=O)(=O)c4ccc(NCC5CCOCC5)c([N+](=O)[O-])c4)c(Oc4cnc5[nH]ccc5c4)c3)CC2)=C(c2ccc(Cl)cc2)C1 [Venetoclax] + CCN(CCO)CCCOc1ccc2c(Nc3cc(CC(=O)Nc4cccc(F)c4)[nH]n3)ncnc2c1 [AZD2811] (first compound max 1 µM, 7x7, partner max 1 µM) .
Ans. 0.261

---

test system: MV-4-11 (Acute Myeloid Leukemia); test: combination Emax (second highest fraction inhibited in the dose matrix, 72 h); higher = more inhibition; extreme values may be limits of the assay
Provide the recorded combination Emax for the entries that follow.
Answers are plain numbers.

INSERT INTO assay_data (compound, measured_quantity, measurement) VALUES
  ('Cc1nc(-c2cn3c(n2)-c2ccc(-c4cnn(C(C)(C)C(N)=O)c4)cc2OCC3)n(C(C)C)n1 [Taselisib] + O=C(Nc1ccc2[nH]nc(-c3ccncc3)c2c1)[C@@H]1CCN(CC(=O)N2CCN(c3ccc(-c4ncccn4)cc3)CC2)C1 [SCH772984] (first compound max 10 µM, 7x7, partner max 5 µM)', 'combination Emax', 0.905);

Here's the next entry for you.
Qu. Supply reported combination Emax belonging to this compound: CC1(C)CCC(CN2CCN(c3ccc(C(=O)NS(=O)(=O)c4ccc(NCC5CCOCC5)c([N+](=O)[O-])c4)c(Oc4cnc5[nH]ccc5c4)c3)CC2)=C(c2ccc(Cl)cc2)C1 [Venetoclax] + C=CCn1c(=O)c2cnc(Nc3ccc(N4CCN(C)CC4)cc3)nc2n1-c1cccc(C(C)(C)O)n1 [AZD1775] (first compound max 1 µM, partner max 1 µM)
Ans. 1

---

Provide the recorded combination Emax for the entries that follow.
test system: SK-N-AS (Neuroblastoma); assay: combination Emax (second highest fraction inhibited in the dose matrix, 72 h); higher = more inhibition; extreme values may be limits of the assay
One number for each entry.

INSERT INTO assay_data (compound, measured_target, measured_quantity, measurement) VALUES
  ('COc1cc2c(cc1OCCCCCOc1cc3c(cc1OC)C(=O)N1C=C(C)C[C@H]1C=N3)N=C[C@@H]1CC(C)=CN1C2=O [SG3199] + O=C(c1cc(Cc2n[nH]c(=O)c3ccccc23)ccc1F)N1CCN(C(=O)C2CC2)CC1 [Olaparib] (first compound max 0.001 µM, 7x7, partner max 10 µM)', 'SK-N-AS (Neuroblastoma)', 'combination Emax', 0.0679);

Here's the next entry for you.
Qu. Supply reported combination Emax belonging to this compound: Cn1cnc2c(F)c(Nc3ccc(Br)cc3Cl)c(C(=O)NOCCO)cc21 [Selumetinib] + C=CCn1c(=O)c2cnc(Nc3ccc(N4CCN(C)CC4)cc3)nc2n1-c1cccc(C(C)(C)O)n1 [AZD1775] (first compound max 10 µM, partner max 1 µM)
Ans. 0.817

---

test system: KMRC-1 (Kidney Carcinoma); experiment: combination Emax (second highest fraction inhibited in the dose matrix, 72 h); higher = more inhibition; extreme values may be limits of the assay
Label scheme for combination Emax: lower than 0.6 is not satisfied, 0.6 and above is satisfied.

Some solved entries appear below for comparison.
INSERT INTO assay_data (molecule, measured_target, class_name) VALUES
  ('Cc1cc2ncnn2cc1Nc1ncc2c(n1)n(C1CCOCC1)c(=O)n2C [AZD7648] + C[C@@H]1COCCN1C2=NC(=NC(=C2)C3(CC3)[S@](=N)(=O)C)C4=C5C=CNC5=NC=C4 [AZD6738] (first compound max 10 µM, 7x7, partner max 10 µM)', 'KMRC-1 (Kidney Carcinoma)', 'not satisfied'),
  ('Cc1cc2ncnn2cc1Nc1ncc2c(n1)n(C1CCOCC1)c(=O)n2C [AZD7648] + CN(C)CCCOc1ccc(-c2ccc3ncc4c(c3c2)n(C2CCOCC2)c(=O)n4C)cn1 [AZD0156] (first compound max 10 µM, 7x7, partner max 1 µM)', 'KMRC-1 (Kidney Carcinoma)', 'not satisfied'),
  ('C[C@@H](c1ccc2nccn2c1)n1nnc2ncc(-c3cnn(C)c3)nc21 [Savolitinib] + CC1(C)CCC(CN2CCN(c3ccc(C(=O)NS(=O)(=O)c4ccc(NCC5CCOCC5)c([N+](=O)[O-])c4)c(Oc4cnc5[nH]ccc5c4)c3)CC2)=C(c2ccc(Cl)cc2)C1 [Venetoclax] (first compound max 1 µM, 7x7, partner max 1 µM)', 'KMRC-1 (Kidney Carcinoma)', 'not satisfied'),
  ('NC1(C(=O)N[C@@H](CCO)c2ccc(Cl)cc2)CCN(c2ncnc3[nH]ccc23)CC1 [Capivasertib] + COc1nnc2ccc(N3CCC(c4ccc(OCCN5CCN(C)C(=O)[C@H]5C)cc4)CC3)nn12 [AZD5153] (first compound max 10 µM, 7x7, partner max 1 µM)', 'KMRC-1 (Kidney Carcinoma)', 'not satisfied'),
  ('C[C@@H](Oc1cc(-c2cnn(C3CCNCC3)c2)cnc1N)c1c(Cl)ccc(F)c1Cl [Crizotinib] + CC1=C(C(=CC=C1)Cl)NC(=O)C2=CN=C(S2)NC3=CC(=NC(=N3)C)N4CCN(CC4)CCO [Dasatinib] (first compound max 10 µM, 7x7, partner max 2 µM)', 'KMRC-1 (Kidney Carcinoma)', 'satisfied');

Qu. Would you say C=CCn1c(=O)c2cnc(Nc3ccc(N4CCN(C)CC4)cc3)nc2n1-c1cccc(C(C)(C)O)n1 [AZD1775] + Nc1ccn([C@@H]2O[C@H](CO)[C@@H](O)C2(F)F)c(=O)n1 [Gemcitabine] (first compound max 1 µM, partner max 0.3 µM) shows combination Emax at minimum 0.6?
Ans. satisfied

Qu. Would you say COc1nnc2ccc(N3CCC(c4ccc(OCCN5CCN(C)C(=O)[C@H]5C)cc4)CC3)nn12 [AZD5153] + C=CCn1c(=O)c2cnc(Nc3ccc(N4CCN(C)CC4)cc3)nc2n1-c1cccc(C(C)(C)O)n1 [AZD1775] (first compound max 1 µM, partner max 1 µM) shows combination Emax at minimum 0.6?
Ans. not satisfied

Qu. Would you say COc1nnc2ccc(N3CCC(c4ccc(OCCN5CCN(C)C(=O)[C@H]5C)cc4)CC3)nn12 [AZD5153] + Cc1c2c(nn1C)CSCc1cc(n(C)n1)CSc1cc(c3ccccc3c1)OCCCc1c(C(=O)O)n(C)c3c-2c(Cl)ccc13 [AZD5991] (first compound max 1 µM, 7x7, partner max 1 µM) shows combination Emax at minimum 0.6?
Ans. not satisfied

Qu. Would you say C=CCn1c(=O)c2cnc(Nc3ccc(N4CCN(C)CC4)cc3)nc2n1-c1cccc(C(C)(C)O)n1 [AZD1775] + C[C@@H]1COCCN1C2=NC(=NC(=C2)C3(CC3)[S@](=N)(=O)C)C4=C5C=CNC5=NC=C4 [AZD6738] (first compound max 1 µM, partner max 10 µM) shows combination Emax at minimum 0.6?
Ans. satisfied

Hey, just so you know, these numbers are from the supplement of paper PMC11061612.
